Sourced from the supplement of paper PMC8882468

CTG-3D luminescence at 96 h values for the molecules below.
System: HCI-019 (organoid from a triple-negative breast cancer xenograft)
Experimental Details: CTG-3D luminescence at 96 h relative to day-0 seeding control (ratio to day 0); higher = more growth / less cytotoxicity; PDxO 3D drug screen (set 2), 96 h, CTG-3D normalised to day-0 seeding control.
Condition Label: 625 fM; days in culture: 173
Write the number on its own, no unit after it.

Known CTG-3D luminescence at 96 h results, listed for orientation:
- Molecule: "CC(C)n1nc(-c2ccc3oc(N)nc3c2)c2c(N)ncnc21 [sapanisertib]"
  Recorded Metric: "CTG-3D luminescence at 96 h"
  Measured Number: 1.71
- Molecule: "CS(=O)(=O)CCNCc1ccc(-c2ccc3ncnc(Nc4ccc(OCc5cccc(F)c5)c(Cl)c4)c3c2)o1 [lapatinib]"
  Recorded Metric: "CTG-3D luminescence at 96 h"
  Measured Number: 1.93
- Molecule: "CC(=O)c1c(C)c2cnc(Nc3ccc(N4CCNCC4)cn3)nc2n(C2CCCC2)c1=O [palbociclib]"
  Recorded Metric: "CTG-3D luminescence at 96 h"
  Measured Number: 2.01

Field: next molecule
Return CTG-3D luminescence at 96 h for the following molecule: COc1cccc2c1C(=O)c1c(O)c3c(c(O)c1C2=O)C[C@@](O)(C(=O)CO)C[C@@H]3O[C@H]1C[C@H](N)[C@@H](O)[C@H](C)O1 [epirubicin]
2.04
